Source of measurements: patent US20220204592A1

Items are presented alongside their recorded Kd.
Target: H3 hemagglutinin (A/Wisconsin/67/2005) (influenza A virus A/Wisconsin/67/2005 (H3N2))
Test: ELISA on coated HA, relative Kd (4-parameter fit)
Expressed in pM, but write only the number.

Example entries begin here.
| binder | measurement_kind | experimental_value |
| --- | --- | --- |
| Ab 037 (antibody, V domains shown) VH: EVQLLESGGGLVKPGQSLKLSCAASGFTFTSYAMHWVRQPPGKGLEWVAVVSYDGNYKYYADSVQGRFTISRDNSKNTLYLQMNSLRAEDTAVYYCAKDSRLRSLLYFEWLSQGYFNPWGQGTTLTVSS VL: DIQMTQSPSSLSASVGDRVTITCRSSQSITFNYKNYLGWYQQKPGKAPKLLIYWGSYLESGVPSRFSGSGSGTDFTLTISSLQPEDFATYYCQQHYRTPPSFGQGTKVEIK | Kd | 313 |
| Ab 004 (antibody, V domains shown) VH: QVQLLETGGGLVKPGQSLKLSCAASGFTFTSYAMHWVRQPPGKGLEWVAVVSYDGNYKYYADSVQGRFTISRDNSKNTLYLQMNSLRAEDTAVYYCAKDSRLRSLLYFEWLSQGYFNPWGQGTTLTVSS VL: DIVMTQSPDTLAVTLGERATIQCKSSQTVTFNYKNYLAWYQQKPGQPPKLLIYWASTRESGVPDRFSGSGSGTDFTLTITSLQAEDVAVYYCQQHYRTPPSFGQGTKLDIK | Kd | 713 |

Ask | Param item = Ab 031 (antibody, V domains shown) VH: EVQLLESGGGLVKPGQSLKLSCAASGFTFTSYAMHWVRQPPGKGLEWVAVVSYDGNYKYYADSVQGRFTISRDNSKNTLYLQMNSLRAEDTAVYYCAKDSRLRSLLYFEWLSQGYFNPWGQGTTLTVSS VL: DIQMTQSPSSLSASVGDRVTITCRSSQSITFNYKNYLAWYQQKPGKAPKLLIYWGSYLESGVPSRFSGSGSGTDFTLTISSLQPEDFATYYCQQHYRTPPSFGQGTKVEIK ; retrieve measured Kd.
Reply | 253
